What GI50 was measured for each of the following?
Tested on: LXFL 529
Assay summary: NCI tumour cell line growth inhibition, 48 h
Activity calls are given as the source filed them. No stated cut-off is given here; in the data, active = GI50 up to about 1.1 µM and inactive = higher.

[
  {
    "Compound": "O=C(/C=C/c1ccccc1)Oc1cccc2cccnc12",
    "Result": "4.06 µM (inactive)"
  },
  {
    "Compound": "C#C[C@]1(O)CCC2C3CCc4cc(Oc5nc(F)nc(-n6c(C)nc7cc8ccccc8cc76)n5)ccc4C3CCC21C (some centres not stated)",
    "Result": "41.1 µM (inactive)"
  },
  {
    "Compound": "C#Cc1cccc(N2C(=O)CCC2=O)c1",
    "Result": "11.1 µM (inactive)"
  },
  {
    "Compound": "Clc1cccc(Cl)c1C1SCc2nc3ccccc3n21 (configuration not stated)",
    "Result": "> 100 µM (inactive)"
  },
  {
    "Compound": "Cn1c(=O)c2nc(NCCO)cnc2n(C)c1=O",
    "Result": "36.5 µM (inactive)"
  }
]

For every item below, please supply its GI50.
1. O=c1n(-c2ccccc2)c(=O)n2n1C1C=CC2C2C(C1)C2(Cl)Cl (configuration not stated)
2. COc1ccc(Nc2nc3ccc(C(F)(F)F)cc3nc2-c2ccccc2)cc1OC

> 100 µM (inactive)
43.2 µM (inactive)
